# Target Of Assay: T1, DVL3, Q92997
# T1 sequence (Q92997 244-331, limits assumed, looked up): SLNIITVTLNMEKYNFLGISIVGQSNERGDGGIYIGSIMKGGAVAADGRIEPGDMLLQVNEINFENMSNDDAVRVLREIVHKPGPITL
# Protocol Description: holdup assay
# Parameters: key: below the threshold = too weak to quantify, mostly under pKd 3.1 to 4
# Test Conditions: plain residues with an end cap or a label only (N-terminal biotin on a linker: ado-ado)
Reported Property: pKd

DYSNLRETDI [ADRA1D, P25100]: below the threshold
DSEEELPTRL [GRK6, P43250]: below the threshold
GNDPDRGTSI [GRID2, O43424]: below the threshold
EAVTVESTSL [SLC22A11, Q9NSA0]: below the threshold

All figures here come from paper PMC9482650.
